Values were extracted from patent US6284914A.

Provide the recorded IC50 for the entries that follow.
# target of assay: TNF-α converting enzyme (Homo sapiens, UniProt P78536)
# Construct: Human monocyte derived leukemia cell-line U937; endogenous in cells; host or cells: U937 (PMA-differentiated, LPS-stimulated)
# Sequence (P78536 215-824): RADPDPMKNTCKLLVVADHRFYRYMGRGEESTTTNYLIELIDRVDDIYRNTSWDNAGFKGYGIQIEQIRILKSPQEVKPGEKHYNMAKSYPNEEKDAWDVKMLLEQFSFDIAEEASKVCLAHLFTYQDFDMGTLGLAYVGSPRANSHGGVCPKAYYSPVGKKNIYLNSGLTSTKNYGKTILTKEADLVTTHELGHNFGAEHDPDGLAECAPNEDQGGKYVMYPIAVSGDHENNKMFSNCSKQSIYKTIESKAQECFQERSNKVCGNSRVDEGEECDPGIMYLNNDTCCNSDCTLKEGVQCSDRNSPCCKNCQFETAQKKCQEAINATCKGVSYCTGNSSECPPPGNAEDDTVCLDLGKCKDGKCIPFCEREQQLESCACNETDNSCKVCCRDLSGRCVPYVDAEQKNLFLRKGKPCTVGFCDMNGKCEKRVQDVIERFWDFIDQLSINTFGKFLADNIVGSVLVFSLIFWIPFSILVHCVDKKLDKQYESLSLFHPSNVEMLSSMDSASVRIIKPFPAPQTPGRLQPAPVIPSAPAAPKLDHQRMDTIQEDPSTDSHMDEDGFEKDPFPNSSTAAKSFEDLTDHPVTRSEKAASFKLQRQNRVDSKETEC
# experimental details: Assay for Suppression of TNF-α Production (LPS-stimulated U937 cells)
# Assay type: cell-based
# condition info: U937 cells (PMA-differentiated), Lipopoplysaccaride 0.1 μg/ml, 37° C., 6 hours, TNF-α in supernatant; read-out: Inhibitory activities for TNF-α converting enzyme, IC50 value
Where a name gives a salt, the structure may show the parent alone.
One number for each entry, in nM.

Example entries begin here.
CNC(=O)[C@H](Cc1ccc(NC(=N)N)cc1)NC(=O)[C@H](CC(C)C)[C@H](O)C(=O)NO = 7000
CNC(=O)[C@H](Cc1ccc(S(=O)(=O)O)cc1)NC(=O)[C@H](CC(C)C)C(CCCc1ccccc1)C(=O)NO (some centres unmarked) [Example 4, Monosodium Salt] = 510
CNC(=O)[C@H](Cc1ccc(NC(=N)N)cc1)NC(=O)[C@H](CC(C)C)C(CCCc1ccccc1)C(=O)NO (single isomer, unassigned) = 98
CNC(=O)[C@H](Cc1ccc(S(=O)(=O)O)cc1)NC(=O)[C@H](CC(C)C)C(CSc1cccs1)C(=O)NO (single isomer, unassigned) [Example 5, Monosodium Salt] = 500

Exam item: Read the entry CCC(=N)NCc1ccc(C[C@H](NC(=O)[C@H](CC(C)C)C(CCCc2ccccc2)C(=O)NO)C(=O)NC)cc1 (single isomer, unassigned) and write its reported IC50.
Marked response: 400

====

# target of assay: stromelysin (MMP-3) (Homo sapiens, UniProt P08254)
# Construct: endogenous in cells
# Sequence (P08254 100-477): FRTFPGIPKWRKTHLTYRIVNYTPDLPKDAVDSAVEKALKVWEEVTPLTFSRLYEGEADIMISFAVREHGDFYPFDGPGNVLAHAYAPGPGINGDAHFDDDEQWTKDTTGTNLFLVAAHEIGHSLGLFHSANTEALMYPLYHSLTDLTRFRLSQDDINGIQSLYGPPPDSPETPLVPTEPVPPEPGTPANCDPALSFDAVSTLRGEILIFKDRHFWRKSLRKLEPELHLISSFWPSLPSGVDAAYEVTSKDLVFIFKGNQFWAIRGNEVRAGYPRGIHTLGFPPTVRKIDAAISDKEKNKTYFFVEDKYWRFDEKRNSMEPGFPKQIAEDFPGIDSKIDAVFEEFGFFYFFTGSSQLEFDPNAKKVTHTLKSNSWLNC
# experimental details: Assay for Stromelysin Inhibitory Activity (MMP-3)
# condition info: fluorescein-labeled casein substrate, 37° C., 2 hours, pH 7.8; read-out: Inhibitory activities for matrix metalloproeinases (MMPs), MMP-3, IC50 value
Where a name gives a salt, the structure may show the parent alone.
readout name: log10 of IC50 (log10 of the value in µM)
Please note: log10 values; quantity IC50; unit µM.

CNC(=O)[C@H](Cc1ccc(C(=N)N)cc1)NC(=O)[C@H](CC(C)C)C(CCCc1ccccc1)C(=O)NO (single isomer, unassigned) = -2.30
CC(C)C[C@@H](C(=O)N[C@@H](Cc1ccc(NC(=N)N)cc1)C(=O)Nc1ccccc1)C(CCCc1ccccc1)C(=O)NO (some centres unmarked) = -2.00
CCC(=N)NCc1ccc(C[C@H](NC(=O)[C@H](CC(C)C)C(CCCc2ccccc2)C(=O)NO)C(=O)NC)cc1 (single isomer, unassigned) = -2.05
CC(C)C[C@@H](C(=O)N[C@@H](Cc1ccc(OS(=O)(=O)O)cc1)C(=O)Nc1cccc2ccccc12)C(CCCc1ccccc1)C(=O)NO (some centres unmarked) [Example 18, Monosodium Salt] = -2.22
CNC(=O)[C@H](Cc1ccc(OP(=O)(O)O)cc1)NC(=O)C(CC(=O)NO)CC(C)C (single isomer, unassigned) [Example 9, Disodium Salt] = -0.40
CCCOC[C@H](C(=O)N[C@@H](Cc1ccc(S(=O)(=O)[O-])cc1)C(=O)NC)C(CSC(C)C)C(=O)NO.[Na+] (mixture of isomers) [Example 6, Monosodium Salt] = -0.55

Hi there! I need log10 of IC50 for each item below, if you can.
1. CNC(=O)[C@H](Cc1ccc(OC)cc1)NC(=O)[C@@H](CC(=O)NO)CC(C)C [Comparative Compound 1, reference compound]
2. CNC(=O)[C@H](Cc1ccc(S(=O)(=O)O)cc1)NC(=O)C(CC(=O)NO)CC(C)C (some centres unmarked) [Example 2, Monosodium Salt]
3. CNC(=O)[C@H](Cc1ccc(OS(=O)(=O)O)cc1)NC(=O)[C@H](CC(C)C)C(CCCc1ccccc1)C(=O)NO (single isomer, unassigned) [Example 3 (Isomer B), Monosodium Salt]
4. CNC(=O)[C@H](Cc1ccc(O)cc1)NC(=O)[C@H](CC(C)C)[C@H](CCCc1ccccc1)C(=O)NO [Comparative Compound 2, reference compound]

Marked response:
1: -0.96; 2: -0.70; 3: -2.27; 4: -2.10
